System: MCF-7 cells
Protocol Details: Cell viability MTT assay
Format: cell-based
Experimental Setup: Homo sapiens, MCF7, MCF-7, 48 h (Figure 8 legend; method says 72 h), mean ± SD n = 3
Value Type: pIC50
// pIC50 is dimensionless: -log10 of concentration (M)

IN: Requested field: pIC50. Item: O=c1oc2c(O)c(O)cc3c(=O)oc4c(O)c(O)cc1c4c23 [EA, ellagic acid]
OUT: 4.54
